# target.or.test.system: T1, hemagglutinin ectodomain of influenza virus H1/PR/8/34 (influenza virus H1/PR/8/34, UniProt P03452 18-528)
# T1 construct: extracellular domain; also called HA H1/PR/8/34
# T1 sequence (P03452 18-528): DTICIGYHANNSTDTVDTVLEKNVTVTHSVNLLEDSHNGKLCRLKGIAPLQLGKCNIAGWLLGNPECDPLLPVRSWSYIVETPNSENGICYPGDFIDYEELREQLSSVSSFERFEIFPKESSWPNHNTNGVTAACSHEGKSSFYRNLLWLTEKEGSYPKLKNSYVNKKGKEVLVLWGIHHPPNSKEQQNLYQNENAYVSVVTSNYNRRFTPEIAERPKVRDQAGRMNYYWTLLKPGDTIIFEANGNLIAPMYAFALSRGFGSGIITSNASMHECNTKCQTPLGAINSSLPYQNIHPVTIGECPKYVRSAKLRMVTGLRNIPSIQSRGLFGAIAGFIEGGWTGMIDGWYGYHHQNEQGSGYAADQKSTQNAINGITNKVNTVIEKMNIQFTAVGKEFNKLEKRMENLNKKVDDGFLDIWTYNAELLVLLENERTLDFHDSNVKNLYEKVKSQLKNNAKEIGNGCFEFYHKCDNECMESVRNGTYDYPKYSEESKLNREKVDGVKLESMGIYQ
# protocol.notes: immunoassay or flow cytometry
measurement.label: binding result

scFv 1-416 (scFv, V domains shown) VH: QVQLVQSGAEVKKPGSSVRVSCTASGSNFSSHTINWVRQAPGQGLEWMGKVIPVLDISKHAQTFLGRVIITADKSTSTAYLELSSLRSEDTAIYYCAMDSVYGNFDFWGQGTLVTVSS VL: ELVLTQPPSVSVSPGQTARITCSGDAFPKHYAYWYQQKPGQAPVLVIYKDTERPSGIPERFSGSSSGTTATLTISGVQAEDEADYYCQSTDSSDTWVFGAGTKVTVL: no binding
scFv 2-102 (scFv, V domains shown) VH: QVQLVQSGAEVKKPGSSVKVSCRASGGTFSSYTINWVRQAPGQGLEWMGRVVPILGVTNYAQKFQGRVTITADKSTSTAYMELSSLRSEDTAVYYCARDKGYDNNYGAYWGQGTLVTVSS VL: ELVVTQPPSVSVAPGQTARITCGGNNIGSINVHWYQQKPGQAPVLVVYDDSARPSGIPERFSGSNSGNTATLTISRVEAGDEADYYCQVWDSRSDYWVFGGGTKVTVL: no binding

Provenance of the data: patent US20190031771A1
